- Test system: SULT1C1
- Assay info: SULT1C1 enzyme activity assay: sulfate conjugation of 4-nitrophenol with 35S-PAPS, COS-1 cytosol of recombinant allozymes
- Type: biochemical, human
- Protocol conditions: apparent Km for PAPS, in the presence of 10 mM 4-NP, six PAPS concentrations 0.0625 μM to 2 μM
Observable: Km

[[record]]
molecule = "Ser255Ala: SULT1C1 polypeptide having an alanine at amino acid 255 in place of a serine (protein) MALTSDLGKQIKLKEVEGTLLQPATVDNWSQIQSFEAKPDDLLICTYPKAGTTWIQEIVDMIEQNGDVEKCQRAIIQHRHPFIEWARPPQPSGVEKAKAMPSPRILKTHLSTQLLPPSFWENNCKFLYVARNAKDCMVSYYHFQRMNHMLPDPGTWEEYFETFINGKVVWGSWFDHVKGWWEMKDRHQILFLFYEDIKRDPKHEIRKVMQFMGKKVDETVLDKIVQETSFEKMKENPMTNRSTVSKSILDQSISAFMRKGTVGDWKNHFTVAQNERFDEIYRRKMEGTSINFCMEL"
observable = "Km"
result = "0.56 µM"

